Friendly reminder: melting point below 100 °C is true (1), at or above is false (0).

{"compound": "O=C(O)C1CCCCC1", "assigned class": "true (1)"}
{"compound": "O=C1c2ccccc2C(=O)N1Cc1ccccc1", "assigned class": "false (0)"}
{"compound": "Clc1ccc2c(c1)Oc1c(Cl)c(Cl)c(Cl)c(Cl)c1O2", "assigned class": "false (0)"}
{"compound": "CC1=CCC(=O)O1", "assigned class": "true (1)"}
{"compound": "C=C(C(=O)O)C(F)(F)F", "assigned class": "true (1)"}
{"compound": "CCCC(C(N)=O)n1nnc2ccccc21 (stereo unspecified)", "assigned class": "false (0)"}
{"compound": "O=C(O)Cc1ccc(O)cc1", "assigned class": "false (0)"}
{"compound": "O=P(c1ccccc1)(c1ccccc1)c1ccccc1", "assigned class": "false (0)"}
{"compound": "O=C(O)CCCCCCCBr", "assigned class": "true (1)"}
{"compound": "COc1ccc(N)c([N+](=O)[O-])c1", "assigned class": "false (0)"}
{"compound": "Cc1c(F)c(F)c(C)c(F)c1F", "assigned class": "true (1)"}
{"compound": "O=CN1CCOCC1", "assigned class": "true (1)"}
{"compound": "CCNc1ccc2ccccc2c1", "assigned class": "false (0)"}
{"compound": "CC(=O)c1ccc(O)cc1O", "assigned class": "false (0)"}
{"compound": "Oc1cc(Cl)ccc1Cl", "assigned class": "true (1)"}
{"compound": "CC(C)c1cccc(C(C)C)c1O", "assigned class": "true (1)"}
